Data origin: PubChem BioAssay (EPA / NIEHS)

read-out: Paternally Expressed 10 (PEG10), PEG10 (gene 23089); experiment: LTEA_HepaRG_PEG10: Life Technologies and Expression Analysis (LTEA) Assay for Paternally Expressed 10 (PEG10) using HepaRG (AID 2283520); details: mRNA level, 48 h; actives raise or lower the signal
Calls of active or inactive are those of the source. How the source made its calls: active means hit-call score of the fitted dose curve at least 0.9, where 1 is the maximum; inactive means score below 0.9.
ASSAY_READOUT: outcome

What the record says about CCOC(=O)c1ccc(O)cc1 : outcome is inactive

So for CCNc1nc(N)nc(Cl)n1 , the logged outcome turned out to be inactive

Quick note, outcome for CCOC(=O)COc1cc(-n2ncc(C(F)(F)F)c(C)c2=O)c(F)cc1Cl landed at inactive

---

read-out: growth arrest and DNA damage 45 (GADD45G), GADD45G (gene 10912); assay: LTEA_HepaRG_GADD45G: Life Technologies and Expression Analysis (LTEA) Assay for growth arrest and DNA damage 45 (GADD45G) using HepaRG (AID 2283499); conditions: mRNA level, 48 h; actives raise or lower the signal
Active and inactive are the calls of the source. How the source made its calls: active means hit-call score of the fitted dose curve at least 0.9, where 1 is the maximum; inactive means score below 0.9.
Give one outcome, nothing more. List: label 1 for active, label 0 for inactive

Worked examples, 3 molecules total:
Qu. What was the test verdict on CCOC(=O)C(C)Oc1ccc(Oc2cnc3cc(Cl)ccc3n2)cc1 (stereo unspecified) ?
Ans. label 0

Qu. I would be grateful if you could indicate the recorded call for CCCOC(=O)NCCCN(C)C .
Ans. label 0

Qu. Tell me the recorded outcome of this test for CSC(=O)c1cccc2nnsc12 .
Ans. label 0

New cases:
Qu. Look up the recorded call for CC(C)(c1ccc(O)cc1)c1ccc(O)cc1 in this test.
Ans. label 0

Qu. Dear all, I need the recorded test outcome for CC(C)(C)[C@@H](O)[C@@H](Cc1ccc(Cl)cc1)n1cncn1 , thank you.
Ans. label 0

Qu. What outcome does the record of this test show for O=C(O)c1ccccc1 ?
Ans. label 0

Qu. Recorded test call requested for Oc1ccc(C(c2ccc(O)cc2)C(Cl)(Cl)Cl)cc1
Ans. label 1

Qu. // param item: c1ccc2[nH]c(-c3cscn3)nc2c1 ; yields the recorded call
Ans. label 0

Qu. Please let me know the test result on file for CCOC(=O)C(C)Oc1ccc(Oc2nc3ccc(Cl)cc3o2)cc1 (stereo unspecified) .
Ans. label 0

Qu. Please state the recorded outcome for this molecule: CCOC(=O)c1ccc(O)cc1
Ans. label 0

Qu. // return assay outcome for CC(=O)[C@H]1CC[C@H]2[C@@H]3CCC4=CC(=O)CC[C@]4(C)[C@H]3CC[C@]12C
Ans. label 1

---

experiment: CPHEA_Stoker_NIS_Cytotoxicity: Cytotoxicity Assessment for CPHEA's Radioactive Iodide Uptake (RAIU) Assay for Sodium/Iodide Symporter (NIS) Inhibition, Stoker and Laws Labs (AID 2283897)
Activity calls are given as the source filed them. Rule for the calls: active = hit-call score of the fitted dose curve at least 0.9, where 1 is the maximum; inconclusive = response in the unintended direction; inactive = score below 0.9.
Just give me one of these, please: active, inactive

Qu. Any idea what this test logged for O=C(O)c1ccccc1 ?
Ans. inactive

Qu. Per the assay record, what outcome was assigned to CCCN(CCC)c1c([N+](=O)[O-])cc(C(F)(F)F)c(N)c1[N+](=O)[O-] ?
Ans. active

Qu. Which outcome was entered for the molecule CCOC(=O)C(C)Oc1ccc(Oc2cnc3cc(Cl)ccc3n2)cc1 (stereo not given) in this test?
Ans. inactive

Qu. Which outcome was assigned to CC(=O)[C@H]1CC[C@H]2[C@@H]3CCC4=CC(=O)CC[C@]4(C)[C@H]3CC[C@]12C in this test?
Ans. active

Qu. Called result for CCCCOC(=O)[C@@H](C)Oc1ccc(Oc2ccc(C(F)(F)F)cn2)cc1
Ans. inactive

New cases:
Qu. Hi, do you know how CSC(=O)c1cccc2nnsc12 came out in this test?
Ans. inactive

Qu. Hi, do you know how Cc1nn(C)c(Oc2ccccc2)c1C=NOCc1ccc(C(=O)OC(C)(C)C)cc1 came out in this test?
Ans. inactive

Qu. Can you look up the reported call for c1ccc(Nc2ccccc2)cc1 for me?
Ans. inactive

Qu. Which outcome was entered for the molecule Oc1ccc(C(c2ccc(O)cc2)C(Cl)(Cl)Cl)cc1 in this test?
Ans. active

Qu. Could you please tell me the result logged for CCN(Cc1c(F)cccc1Cl)c1c([N+](=O)[O-])cc(C(F)(F)F)cc1[N+](=O)[O-] in this assay?
Ans. inactive
